Assay: Solubility test
Format: physicochemical
Conditions: pH 2.0 buffer solution, simulated gastric fluid, thermodynamic from solid, pH 2.0 buffer, 37° C.
Experimental: In addition, 100 mg of Lazertinib free-base (prepared in the same manner as the method described in WO 2016/060443) was tested under the same conditions.
metric-name: solubility at 12 h (µg/mL)
The answer is to be given in µg/mL; state only the numeric part.

Prompt: solubility at 12 h lookup needed for C=CC(=O)Nc1cc(Nc2nccc(-n3cc(CN(C)C)c(-c4ccccc4)n3)n2)c(OC)cc1N1CCOCC1 [Lazertinib free-base] , thanks.
Completion: 3700

###

Assay: Solubility test
Assay type: physicochemical
Settings: pH 4.0 buffer solution, aqueous buffer, thermodynamic from solid, pH 4.0 buffer, 37° C.
metric-name: solubility at 12 h (µg/mL)
The answer is to be given in µg/mL; state only the numeric part.

Prompt: solubility at 12 h lookup needed for C=CC(=O)Nc1cc(Nc2nccc(-n3cc(CN(C)C)c(-c4ccccc4)n3)n2)c(OC)cc1N1CCOCC1 [Lazertinib free-base] , thanks.
Completion: 1000

###

Assay: Comparative pharmacokinetic test in normal rats
Format: in vivo, rats (SD rat)
Conditions: male, SD, blood, 30 mg/kg; Normal rat, oral 30 mg/5 mL/kg in 0.5% methyl cellulose; read-out: Area under the blood concentration curve (AUClast)
metric-name: AUC(0-t)
Lab note: write values as number then unit, every time.

Prompt: AUC(0-t) lookup needed for C=CC(=O)Nc1cc(Nc2nccc(-n3cc(CN(C)C)c(-c4ccccc4)n3)n2)c(OC)cc1N1CCOCC1 [Lazertinib free-base] , thanks.
Completion: 7290 ng·h/mL

###

Test: Solubility test
Type: physicochemical
Details: pH 6.0 buffer solution, aqueous buffer, thermodynamic from solid, pH 6.0 buffer, 37° C.
metric-name: solubility at 12 h
Lab note: write values as number then unit, every time.

Prompt: solubility at 12 h lookup needed for C=CC(=O)Nc1cc(Nc2nccc(-n3cc(CN(C)C)c(-c4ccccc4)n3)n2)c(OC)cc1N1CCOCC1 [Lazertinib free-base] , thanks.
Completion: 3 µg/mL

###

Assay: Pharmacokinetic test for Lazertinib mesylate and free-base in beagle dogs
Format: in vivo
Conditions: male, blood, 5 mg/kg; beagle dog, oral 5 mg/2 mL/kg in 0.5% methyl cellulose; read-out: Maximum blood concentration (Cmax)
metric-name: Cmax (ng/mL)
The answer is to be given in ng/mL; state only the numeric part.

Prompt: Cmax lookup needed for C=CC(=O)Nc1cc(Nc2nccc(-n3cc(CN(C)C)c(-c4ccccc4)n3)n2)c(OC)cc1N1CCOCC1 [Lazertinib free-base] , thanks.
Completion: 80.7

###

Assay: Solubility test
Type: physicochemical
Conditions: pH 5.0 buffer solution, aqueous buffer, thermodynamic from solid, pH 5.0 buffer, 37° C.
metric-name: solubility at 12 h (µg/mL)
The answer is to be given in µg/mL; state only the numeric part.

Prompt: solubility at 12 h lookup needed for C=CC(=O)Nc1cc(Nc2nccc(-n3cc(CN(C)C)c(-c4ccccc4)n3)n2)c(OC)cc1N1CCOCC1 [Lazertinib free-base] , thanks.
Completion: 10

Ref: patent US12318390B2
